- Target: GST tagged PIP4KtypeIIA (Homo sapiens)
- Construct: made in house; host or cells: E. coli
- Sequence (P48426 1-406): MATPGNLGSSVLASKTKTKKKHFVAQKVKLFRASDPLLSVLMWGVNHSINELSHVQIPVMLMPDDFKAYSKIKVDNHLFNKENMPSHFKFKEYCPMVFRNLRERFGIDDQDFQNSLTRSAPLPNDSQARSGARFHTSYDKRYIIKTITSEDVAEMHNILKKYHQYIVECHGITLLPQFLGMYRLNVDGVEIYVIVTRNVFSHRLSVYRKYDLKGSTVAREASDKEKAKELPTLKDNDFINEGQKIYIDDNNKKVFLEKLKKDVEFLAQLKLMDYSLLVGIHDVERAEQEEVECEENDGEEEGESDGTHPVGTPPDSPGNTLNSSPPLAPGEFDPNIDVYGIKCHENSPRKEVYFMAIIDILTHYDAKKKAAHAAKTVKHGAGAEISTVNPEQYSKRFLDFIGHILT
- Assay Explanation: ADP-glo kinase assay PIP4K 2A (PIP4KtypeIIA inhibition assay)
- Format: biochemical
- Settings: Table 3; compounds listed under IC50 range headings; 10 uM ATP, 0.5 nM PIP4KIIA
- Experimental: GST tagged PIP4KtypeIIA and B enzymes were overexpressed in E. Coli and purified to >80% homogeneity. […] After 1 hr, the reaction was quenched by adding 25 uL of ADP Glo reagent. […] The luminescence was read using Molecular Devices Paradigm plate reader. […] IC50 was calculated by plotting the residual activity (expressed as % No inhibitor control) vs. log [Inh. conc.]
pIC50: −log10 of the molar value.
// reported pIC50 per item

Compound	pIC50
O=C1CCCN1c1ccc(-c2cncc(-c3n[nH]c4ncc(C5CC5)cc34)c2)cc1 [Example 283]	7.00 to 8.00
CNC(=O)c1cc2c(-c3cncc(-c4ccc(C(=O)N(C)C)cc4)c3)ccnc2o1 [Example 14]	6.00 to 7.00
CN(C)C(=O)c1ccc(-c2cc(-c3cc(Nc4cc(N)ccn4)ncn3)cnc2N)nc1 [Example 222]	< 5.30
Nc1ncc(-c2ccnc3[nH]c(C(=O)NCc4ccccc4)cc23)cc1-c1ccc(C(=O)NCc2ccccc2)cn1 [Example 221]	< 5.30
O=C1CCCN1c1ccc(-c2cncc(-c3ccc(=O)[nH]c3)c2)cc1 [Example 36]	< 5.30
CN(C)C(=O)c1ccc(-c2cc(-c3ccnc4[nH]c(C(=O)NCC(N)=O)cc34)cnc2N)nc1 [Example 144]	6.00 to 7.00
COc1ncc(-c2cnc(N)c(-c3ccc(N4CCCC4=O)cc3)c2)c2cn[nH]c12 [Example 258]	6.00 to 7.00
CNC(=O)c1cc2c(-c3cncc(-c4ccc(N5CCCC5=O)cc4C)c3)ccnc2o1 [Example 170]	6.00 to 7.00

----------
- Target: GST tagged PIP4KtypeIIB (Homo sapiens, UniProt P78356)
- Construct: made in house; host or cells: E. coli
- Sequence (P78356 whole entry): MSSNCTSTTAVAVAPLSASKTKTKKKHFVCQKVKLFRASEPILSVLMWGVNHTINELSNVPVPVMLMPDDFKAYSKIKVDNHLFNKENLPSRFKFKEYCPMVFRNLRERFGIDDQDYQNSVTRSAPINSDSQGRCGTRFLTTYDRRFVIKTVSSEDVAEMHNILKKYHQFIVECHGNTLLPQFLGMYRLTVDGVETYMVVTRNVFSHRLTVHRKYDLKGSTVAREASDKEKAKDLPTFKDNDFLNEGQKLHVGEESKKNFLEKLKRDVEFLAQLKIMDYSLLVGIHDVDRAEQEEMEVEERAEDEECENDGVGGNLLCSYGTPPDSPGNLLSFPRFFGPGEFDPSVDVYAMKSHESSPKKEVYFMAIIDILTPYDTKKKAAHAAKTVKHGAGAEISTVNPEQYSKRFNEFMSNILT
- Assay Explanation: Trans-FI P kinase assay PIP4K2B (PIP4KtypeIIB inhibition assay)
- Format: biochemical
- Settings: Table 4; compounds listed under IC50 range headings; 100 uM GTP, 5 nM PIP4KIIB; read-out: Trans-FI P kinase assays: PIP4K2B IC50
- Procedure: GST tagged PIP4KtypeIIA and B enzymes were overexpressed in E. Coli and purified to >80% homogeneity. […] After 2 h, the reaction was quenched by adding 25 uL of transcreener FI reagent. The contents were incubated at RT for 1 h and the Fluorescence (Ex: 584 Em: 623) was read using Molecular Devices Paradigm plate reader. […] IC50 was calculated by plotting the residual activity (expressed as % No inhibitor control) vs. log [Inh. conc.] […]
pIC50: −log10 of the molar value.

Compound	Target	pIC50
CC(C)Cn1cc(-c2cncc(-c3ccc(N4CCCC4=O)cc3)c2)c2cn[nH]c2c1=O	GST tagged PIP4KtypeIIB (Homo sapiens, UniProt P78356)	7.00 to 8.00
COc1ncc(-c2cncc(-c3ccc(N4CCCC4=O)cc3)c2)c2c[nH]nc12	GST tagged PIP4KtypeIIB (Homo sapiens, UniProt P78356)	6.00 to 7.00
CC(C)n1nnnc1-c1ccc(-c2cncc(-c3ccnc4c3cc3n4CCN(C)C3=O)c2)cc1	GST tagged PIP4KtypeIIB (Homo sapiens, UniProt P78356)	8.00 to 9.00
CC(C)Cn1cnnc1-c1ccc(-c2cc(-c3ccnc4c3cc3n4CCN(CC4CC4)C3=O)cnc2N)cc1	GST tagged PIP4KtypeIIB (Homo sapiens, UniProt P78356)	7.00 to 8.00
CN(C)C(=O)c1ccc(-c2cc(-c3cc(Nc4cccc(NC(=O)c5cccc(N)c5)c4)ncn3)cnc2N)nc1	GST tagged PIP4KtypeIIB (Homo sapiens, UniProt P78356)	6.00 to 7.00
O=C1NCCn2c1cc1c(-c3cncc(-c4ccc(N5CCCC5=O)cc4)c3)ccnc12	GST tagged PIP4KtypeIIB (Homo sapiens, UniProt P78356)	7.00 to 8.00
CC(C)CNC(=O)c1cc2c(-c3cncc(-c4ccc(N5CCCC5=O)cc4)c3)ccnc2[nH]1	GST tagged PIP4KtypeIIB (Homo sapiens, UniProt P78356)	7.00 to 8.00
CN(C)C(=O)c1ccc(-c2cncc(-c3ccnc4ccncc34)c2)cc1	GST tagged PIP4KtypeIIB (Homo sapiens, UniProt P78356)	< 5.30
CC(=O)Nc1ccc(-c2cn(C)c3ncc(-c4cncc(-c5ccc(N6CCCC6=O)cc5)c4)cc23)cn1	GST tagged PIP4KtypeIIB (Homo sapiens, UniProt P78356)	6.00 to 7.00
Nc1ncc(Br)cc1-c1ccc(N2CCCC2=O)cn1	GST tagged PIP4KtypeIIB (Homo sapiens, UniProt P78356)	< 5.30
O=C(c1cc2c(-c3cncc(-c4ccc(N5CCCC5=O)cc4)c3)ccnc2[nH]1)N1CCCC1	GST tagged PIP4KtypeIIB (Homo sapiens, UniProt P78356)	6.00 to 7.00
CC(C)c1cncc(-c2ccc(-c3cncc(-c4ccnc5c4cc4n5CCN(C)C4=O)c3)cc2)c1	GST tagged PIP4KtypeIIB (Homo sapiens, UniProt P78356)	5.30 to 5.60
O=C(N[C@H]1C[C@H](c2ccccc2)C1)c1cc2c(-c3cncc(-c4ccc(N5CCCC5=O)cc4)c3)ccnc2[nH]1	GST tagged PIP4KtypeIIB (Homo sapiens, UniProt P78356)	< 5.30
CN(C)C(=O)c1ccc(-c2cc(-c3cnc4c(c3)c(-c3cncnc3)cn4C)cnc2N)nc1	GST tagged PIP4KtypeIIB (Homo sapiens, UniProt P78356)	5.60 to 6.00
CC(O)c1cnc2c(c1)c(-c1cncc(-c3ccc(N4CCCC4=O)cc3)c1)c1n2CCC1 (centres unmarked)	GST tagged PIP4KtypeIIB (Homo sapiens, UniProt P78356)	7.00 to 8.00
COC(=O)c1cc2c(-c3cncc(-c4ccc(N5CCCC5=O)cc4)c3)ccnc2[nH]1	GST tagged PIP4KtypeIIB (Homo sapiens, UniProt P78356)	7.00 to 8.00
O=C1CCCN1c1ccc(-c2cncc(-c3ccnc4c3cnn4CCO)c2)cc1	GST tagged PIP4KtypeIIB (Homo sapiens, UniProt P78356)	6.00 to 7.00
CC(C)Cn1cnnc1-c1ccc(-c2cncc(-c3ccnc4c3cc3n4CCN(C)C3=O)c2)cc1	GST tagged PIP4KtypeIIB (Homo sapiens, UniProt P78356)	7.00 to 8.00
CNC(=O)c1cc2c(-c3cnc(N)c(-c4ccc(N5CCCC5=O)cc4)c3)ccnc2o1	GST tagged PIP4KtypeIIB (Homo sapiens, UniProt P78356)	8.00 to 9.00
Cn1ncc2c(-c3cncc(-c4ccc(N5CCCC5=O)cc4)c3)ccnc21	GST tagged PIP4KtypeIIB (Homo sapiens, UniProt P78356)	6.00 to 7.00
CN(C)C(=O)c1cnc2ccn(-c3cncc(-c4ccc(N5CCCC5=O)cc4)c3)c2c1	GST tagged PIP4KtypeIIB (Homo sapiens, UniProt P78356)	6.00 to 7.00
Cc1c(-c2ccc(N3CCCC3=O)cc2)cncc1-c1cn(C)c2ncc(C(C)(C)O)cc12	GST tagged PIP4KtypeIIB (Homo sapiens, UniProt P78356)	5.60 to 6.00
COC(=O)N1Cc2nccc(-c3cncc(-c4ccc(N5CCCC5=O)cc4)c3)c2C1	GST tagged PIP4KtypeIIB (Homo sapiens, UniProt P78356)	5.60 to 6.00
O=C1CCCN1c1ccc(-c2cncc(-c3ccncc3)c2)cc1	GST tagged PIP4KtypeIIB (Homo sapiens, UniProt P78356)	< 5.30
Cc1ccc2c(c1)N(C(=O)c1cc3c(-c4cncc(-c5ccc(N6CCCC6=O)cc5)c4)ccnc3[nH]1)CCO2	GST tagged PIP4KtypeIIB (Homo sapiens, UniProt P78356)	6.00 to 7.00
COc1cnc2[nH]ccc2c1-c1cncc(-c2ccc(N3CCCC3=O)cc2)c1	GST tagged PIP4KtypeIIB (Homo sapiens, UniProt P78356)	6.00 to 7.00
CN(C)C(=O)c1ccc(-c2cncc(-c3ccnc4[nH]ccc34)c2)cc1	GST tagged PIP4KtypeIIB (Homo sapiens, UniProt P78356)	6.00 to 7.00
CN1CCn2c(cc3c(-c4cncc(-c5ccc(N6CC7(CC7)CC6=O)cc5)c4)ccnc32)C1=O	GST tagged PIP4KtypeIIB (Homo sapiens, UniProt P78356)	7.00 to 8.00
O=C(NCCc1nccs1)c1cc2c(-c3cncc(-c4ccc(N5CCCC5=O)cc4)c3)ccnc2[nH]1	GST tagged PIP4KtypeIIB (Homo sapiens, UniProt P78356)	7.00 to 8.00
Cn1cc(-c2cncc(-c3ccc(N4CCCC4=O)cc3)c2)c2cn[nH]c2c1=O	GST tagged PIP4KtypeIIB (Homo sapiens, UniProt P78356)	6.00 to 7.00
CNC(=O)c1cc2c(-c3cncc(-c4ccc(C(=O)N(C)C)cc4)c3)ccnc2o1	GST tagged PIP4KtypeIIB (Homo sapiens, UniProt P78356)	6.00 to 7.00
O=C1CCCN1c1ccc(-c2cncc(-c3ccnc4[nH]ncc34)c2)cc1	GST tagged PIP4KtypeIIB (Homo sapiens, UniProt P78356)	6.00 to 7.00
